- Test system: Z138 cells
- Protocol details: MTT cell proliferation assay (Z138)
- Assay type: cell-based
- Settings: Homo sapiens, Z-138, approximately 64-72 hours incubation, 1 nM to 30 μM
pIC50: −log10 of the molar value.
Reported property: pIC50

// solved cases for pIC50 follow
NC(=O)/C(=C/n1cnc(-c2cc(C(F)(F)F)cc(C(F)(F)F)c2)n1)c1ccc(S(=O)(=O)N2CCC(C(F)(F)F)CC2)cc1 ... 5.30 to 7.00
NC(=O)/C(=C/n1cnc(-c2cc(C(F)(F)F)cc(C(F)(F)F)c2)n1)c1ccc(S(=O)(=O)N2CCC2)cc1 ... > 7.00
NC(=O)/C(=C/n1cnc(-c2cc(C(F)(F)F)cc(C(F)(F)F)c2)n1)c1cccc(S(=O)(=O)N2CCC(C(F)(F)F)CC2)c1 ... 5.30 to 7.00
NC(=O)/C(=C/n1cnc(-c2cc(C(F)(F)F)cc(C(F)(F)F)c2)n1)c1ccc(S(=O)(=O)N2CCCC2)cc1 ... > 7.00
CS(=O)(=O)Nc1cccc(/C(=C\n2cnc(-c3cc(C(F)(F)F)cc(C(F)(F)F)c3)n2)C(N)=O)c1 ... 5.30 to 7.00

Consider the following items and state reported pIC50 for each.
1. NC(=O)/C(=C/n1cnc(-c2cc(C(F)(F)F)cc(C(F)(F)F)c2)n1)c1ccc(S(=O)(=O)N2CCCOCC2)cc1
2. NC(=O)/C(=C/n1cnc(-c2cc(C(F)(F)F)cc(C(F)(F)F)c2)n1)c1ccc(S(=O)(=O)NC2CC2)cc1
3. CC1(C)CN(S(=O)(=O)c2ccc(/C(=C\n3cnc(-c4cc(C(F)(F)F)cc(C(F)(F)F)c4)n3)C(N)=O)cc2)CCO1

1. > 7.00
2. > 7.00
3. 5.30 to 7.00

Consider the following items and state reported pIC50 for each.
1. NC(=O)/C(=C/n1cnc(-c2cc(C(F)(F)F)cc(C(F)(F)F)c2)n1)c1ccc(S(=O)(=O)C2CC2)cc1
2. NC(=O)/C(=C/n1cnc(-c2cc(C(F)(F)F)cc(C(F)(F)F)c2)n1)c1ccc(S(=O)(=O)N2CC(F)(F)C2)cc1
3. CN1CCN(S(=O)(=O)c2ccc(/C(=C\n3cnc(-c4cc(C(F)(F)F)cc(C(F)(F)F)c4)n3)C(N)=O)cc2)CC1
4. CS(=O)(=O)c1ccc(/C(=C\n2cnc(-c3cc(C(F)(F)F)cc(C(F)(F)F)c3)n2)C(N)=O)cc1
5. NC(=O)/C(=C/n1cnc(-c2cc(C(F)(F)F)cc(C(F)(F)F)c2)n1)c1cccc(S(=O)(=O)N2CCC(F)CC2)c1

1: > 7.00; 2: > 7.00; 3: 5.30 to 7.00; 4: 5.30 to 7.00; 5: 5.30 to 7.00
